# Test system: OVCAR-8 ovarian
# EXPERIMENTAL_PROTOCOL: NCI tumour cell line growth inhibition, 48 h
For each record, write down the corresponding TGI.

Q: Form field: reported TGI of CC(C)(CN)SCc1ccccc1
A: > 100 µM

Q: Form field: reported TGI of CN(C)C(=S)SCC(N)=O
A: > 100 µM

Q: Form field: reported TGI of CCc1nc(N)nc(N)c1C#CC(C)c1cc(-c2ccnc(C)c2)c2oc(C)nc2c1 (stereo unspecified)
A: 47.1 µM

Q: Form field: reported TGI of CCOC(=O)NC(=S)NC(C)c1ccccc1 (stereo unspecified)
A: > 100 µM

Q: Form field: reported TGI of COc1ccc2c(c1OC)C(=O)O[C@@H]2[C@H]1c2c(c(Br)c3c(c2OC)OCO3)CCN1C
A: > 100 µM

Q: Form field: reported TGI of CCCC(CCC)C(=O)OCC1(CO)C/C(=C\c2ccc(C(F)(F)F)cc2)C(=O)O1 (stereo unspecified)
A: 41 µM

====

For each record, write down the corresponding TGI.
# System: KM20L2 colon
# EXPERIMENTAL_PROTOCOL: NCI tumour cell line growth inhibition, 48 h

Q: Form field: reported TGI of O=C1NN=C(c2ccc([N+](=O)[O-])cc2)C1n1nc(-c2ccccc2)c2ccccc2c1=O (stereo unspecified)
A: > 100 µM

Q: Form field: reported TGI of CCOC(=O)C(=O)Nc1cccc(C)c1C
A: > 100 µM

Q: Form field: reported TGI of Nc1ccc(C2=Nc3ccccc3SC(c3ccccc3O)C2)cc1 (stereo unspecified)
A: > 100 µM

Q: Form field: reported TGI of O=c1cc(-c2ccc(O)cc2)oc2cc(O)cc(O)c12
A: 88.2 µM

Q: Form field: reported TGI of COc1nc(OC)nc(Sc2ccc(Sc3ccc(Sc4nc(OC)nc(OC)n4)cc3)cc2)n1
A: > 100 µM

Q: Form field: reported TGI of Cc1ccccc1NC(=O)CSc1nnc(Cc2ccccc2)o1
A: > 100 µM

====

# System: SNB-75 CNS
# EXPERIMENTAL_PROTOCOL: NCI tumour cell line growth inhibition, 48 h; in the data active means GI50 below about 0.43 µM; inactive means the rest
Would you mind answering with one of these outcomes? 1 (yes) for active, 0 (no) for inactive

Q: For this compound, state the assay outcome: COc1ccc(CN=C(N)N=C(N)N)cc1OC
A: 0 (no)

Q: For this compound, state the assay outcome: O=[N+]([O-])c1cc2c(ccc3occc32)o1
A: 0 (no)

Q: For this compound, state the assay outcome: CCc1nc(N)nc(N)c1C#CC(C)c1cc(-c2ccnc(C)c2)c2oc(C)nc2c1 (stereo not given)
A: 1 (yes)

Q: For this compound, state the assay outcome: COc1ccc(C=C2C(=O)NC(=O)NC2=O)cc1OCc1ccccc1
A: 0 (no)

Q: For this compound, state the assay outcome: NS(=O)(=O)c1ccc(N2N=C(c3cccs3)CC2c2ccccc2O)cc1 (stereo not given)
A: 0 (no)

====

# Test system: IGROV1 ovarian
# EXPERIMENTAL_PROTOCOL: NCI tumour cell line growth inhibition, 48 h
*1 amine or outer side, *2 acyl side, *3 side chain or, on linkers, in order; H or OH if unused. Where a SMILES comes first, the peptide text is derived from it. [ ]: non-standard residue; d: D form. The star is where a group is joined. X31 = CC(=O)N(C)SCC(N[*:1])C(=O)[*:2]; Fmoc = O=C(OCC1c2ccccc2-c2ccccc21)*; For = O=C*
MEASURED_PROPERTY: TGI

Q: Form field: reported TGI of CCSC(=O)C1(C)OC2CCCCC2C1=O (stereo not given)
A: > 100 µM

Q: Form field: reported TGI of CCOP(=O)(OCC)C(=C1C=C(C(C)(C)C)C(=O)C(C(C)(C)C)=C1)P(=O)(OCC)OCC
A: > 10 µM

Q: Form field: reported TGI of O=C1/C(=C/c2ccc(Cl)cc2)Sc2scc(-c3cccc([N+](=O)[O-])c3)[n+]21
A: 7.48 µM

Q: Form field: reported TGI of CN(C)C(=S)SCC(N)=O
A: > 100 µM

Q: Form field: reported TGI of COC(=O)Nc1nc2ccc(S(=O)(=O)c3ccc(NC(=O)Nc4cc(C(F)(F)F)ccc4F)cc3)cc2[nH]1
A: > 25 µM

Q: Form field: reported TGI of O=C(CC(=O)C1CCOC1=O)C(=O)Nc1ccc(Cl)cc1 (stereo not given)
A: > 100 µM

Q: Form field: reported TGI of CC(=O)N(C)SCC(NC(=O)C(Cc1ccccc1)NC(=O)OCC1c2ccccc2-c2ccccc21)C(=O)NC(Cc1ccccc1)C(=O)NC(Cc1cn(C=O)c2ccccc12)C(=O)NC(CCCCNC(=O)OCC1c2ccccc2-c2ccccc21)C(=O)NC(C(=O)NC(CSN(C)C(C)=O)C(=O)NC(C(N)=O)C(C)O)C(C)O (stereo not given) (Fmoc-F[X31]FW(For)K(Fmoc)T[X31]T-NH2; configuration not given here)
A: > 100 µM

Q: Form field: reported TGI of Nc1ccccc1C#C/C=C\C#Cc1ccccc1F
A: 28.8 µM

Q: Form field: reported TGI of CCOC(=O)/C(=N/Nc1ccc(Cl)cc1)N1C(=S)C=C(C)NN(C)C1=S
A: > 100 µM

Q: Form field: reported TGI of CC(=O)Oc1cc(S(=O)(=O)Nc2n[nH]c(N)n2)c(S)cc1Cl
A: > 100 µM

Q: Form field: reported TGI of O=C1Cc2ccccc2CCc2ccsc21
A: > 100 µM

Q: Form field: reported TGI of CC1=NN(C(=O)c2nn(-c3ccc(Cl)cc3)cc2O)C(=O)C1
A: 41 µM

Q: Form field: reported TGI of Cc1cc(C)nc(NS(=O)(=O)c2ccc(NC(=O)c3cccc4c(N)c5ccccc5nc34)cc2)n1
A: > 100 µM

Q: Form field: reported TGI of COc1cc2c(Cc3cc(OCc4ccccc4)ccc3N)nccc2c(OC)c1OC
A: > 10 µM

Q: Form field: reported TGI of OC1c2ccccc2C2C(O)c3ccccc3C12 (stereo not given)
A: > 100 µM

Q: Form field: reported TGI of COC(=O)CNCC1OC2OC(C)(C)OC2C1N=[N+]=[N-] (stereo not given)
A: > 100 µM

Q: Form field: reported TGI of Cc1ccc(Nc2nc(C)c(C(/C=C/c3ccc4c(c3)OCO4)=N/Nc3ccc([N+](=O)[O-])cc3[N+](=O)[O-])s2)c([N+](=O)[O-])c1
A: > 100 µM

Q: Form field: reported TGI of CCOC(=O)C(=O)Nc1cccc(C)c1C
A: > 100 µM

Q: Form field: reported TGI of CN(C)N=Nc1nn(C(=O)Nc2ccc(Cc3ccccc3)cc2)c2ccccc12
A: > 100 µM

Q: Form field: reported TGI of COc1nc(C)nc2c1ncn2Cc1ccccc1
A: > 100 µM

Q: Form field: reported TGI of O=C(O)CO/N=C1/C(c2c(O)[nH]c3ccccc23)=Nc2ccccc21
A: > 100 µM

Q: Form field: reported TGI of CNc1ncc2cc(Oc3ccc(F)cc3F)c(=O)n(C)c2n1
A: > 25 µM

Q: Form field: reported TGI of Cc1ccc(N2C(=O)C(=O)N(/N=C3\C(=O)Nc4ccccc43)C2=S)cc1
A: > 100 µM

Q: Form field: reported TGI of CN(C)Cc1[nH]c2ccccc2c1C(=O)c1ccccc1
A: > 100 µM

Q: Form field: reported TGI of CSc1nc(C)c(CCCl)c(Cl)n1
A: > 100 µM

Q: Form field: reported TGI of Cn1ncnc1C1c2n[nH]c(=O)c3cc(F)cc(c23)NC1c1ccc(F)cc1 (stereo not given)
A: > 100 µM

Q: Form field: reported TGI of CCCc1cc(-c2ccc(-c3cc(CCC)c(C=O)[nH]3)s2)[nH]c1C=O
A: > 100 µM

Q: Form field: reported TGI of C=CCC1C2CCC(O[Si](C(C)C)(C(C)C)C(C)C)(C(C(=O)OC)C2)C1O (stereo not given)
A: > 100 µM

Q: Form field: reported TGI of COC(=O)C1=C(c2ccc(Cl)cc2)C(O)N=C(NN)N1 (stereo not given)
A: > 100 µM

Q: Form field: reported TGI of Cn1c2ccccc2c2[nH]c3ccccc3c(=O)c21
A: > 100 µM

Q: Form field: reported TGI of CC(=O)C1=NN(c2ccccc2)C2(S1)SC(c1ccccc1)(c1ccccc1)c1ccccc12 (stereo not given)
A: > 100 µM

Q: Form field: reported TGI of Cc1ccc([N+](=O)[O-])c2c(NCCC[N+](C)(C)[O-])ccnc12
A: 67.3 µM

Q: Form field: reported TGI of C=C1C(=O)O[C@H]2[C@H]1CC/C(CNC(=O)/C=C/c1ccc(Cl)cc1Cl)=C\CC[C@@]1(C)O[C@@H]21
A: 3.41 µM

Q: Form field: reported TGI of Cn1c(=O)sc2cc(C(=S)N3CCN(c4ccccc4)CC3)ccc21
A: > 100 µM

Q: Form field: reported TGI of O=C1c2ccn(CCCCN(CCO)CCO)c2C(=O)c2c1c(O)c1ccccc1c2O
A: > 100 µM
